These measurements were taken from a melting point compilation (Tetko et al.; mined from patent text by program, amines drawn as free bases though some values may be those of a salt).

endpoint-label: melting point

[Q] Dear colleague, I am looking for the recorded melting point of the following compound: `CC(C)(SCC(N)=O)c1ccc2c(c1)OCO2`
[A] 70 to 71.5 °C

[Q] Dear colleague, I am looking for the recorded melting point of the following compound: `COc1ccc(Cc2cc(C3CCN(C(=O)NCc4ccccc4)CC3)nc(N)n2)cc1`
[A] 128 to 131 °C

[Q] Dear colleague, I am looking for the recorded melting point of the following compound: CCCCCCCCCCC(O)C1CCC(C2CCC(C(O)CCCCCCCCCCC3CC(CC(C)=O)C(=O)O3)O2)O1 (stereo not given)
[A] 90.5 to 90.7 °C

[Q] Dear colleague, I am looking for the recorded melting point of the following compound: `Cc1ccc([C@H](CC(=O)O)NC(=O)Nc2c(N)cc(C)n(Cc3ccccc3Cl)c2=O)cc1`
[A] 145 to 147 °C

[Q] Dear colleague, I am looking for the recorded melting point of the following compound: `C#CCc1c(C)nc2c(NCc3c(C)cccc3NC(=S)NC(=O)c3ccccc3)cccn12`
[A] 165 to 166 °C

[Q] Dear colleague, I am looking for the recorded melting point of the following compound: N#CC1=C(c2ccc(Br)s2)Nc2n[nH]cc2C1c1cccc2nonc12 (stereo not given)
[A] 208 °C

[Q] Dear colleague, I am looking for the recorded melting point of the following compound: `CCCN(CCC)c1ccc(S(=O)(=O)N2CCCCC2=O)cc1`
[A] 105 to 108 °C

[Q] Dear colleague, I am looking for the recorded melting point of the following compound: `Cc1c(SCCN2CCNCC2)ccnc1CSc1nc2ccccc2[nH]1`
[A] 166 to 168 °C

[Q] Dear colleague, I am looking for the recorded melting point of the following compound: `Cc1nc(I)cn1-c1ccc(F)cc1`
[A] 151 °C

[Q] Dear colleague, I am looking for the recorded melting point of the following compound: `CC(=O)N1CCc2nc(N)nc(-c3ccc(Cl)cc3)c2C1`
[A] 218 to 220 °C

---

endpoint-label: melting point

> print(dat)
                              smiles.string  observed.value
1           O=C(O)Cc1ccc2nc(Nc3ccccc3)oc2c1   222 to 223 °C
2  Cc1cc(CNC(=O)c2cc(-n3cnn(Cc4ccc(F)cc4)c3=O)n[nH]2)no1   276 to 277 °C
3     CC[C@H](N)C(=O)N1CCC[C@H]1C(=O)NCCCSC   120 to 121 °C
4  C=Cc1ccc2c(c1)c(=O)c(C(=O)NCc1ccc(Cl)cc1)cn2C   193 to 196 °C
5  CCCCn1c(=O)c2c(NCC)n[nH]c2n(Cc2ccc(OC)cc2)c1=O   234 to 236 °C

Moving on to another compound below.
[Q] Dear colleague, I am looking for the recorded melting point of the following compound: `c1ccc(-c2nc3ccccc3n2-c2ccccc2)cc1`
[A] 105 to 107 °C

---

Measured melting point by item

> print(dat)
                       compound  endpoint.label  observed.value
1  Cc1ccc(N(C)C(=O)Cc2ccccc2)s1   melting point     77 to 79 °C

[Q] Dear colleague, I am looking for the recorded melting point of the following compound: `COc1cc2c(cc1OCc1ccccc1)CCN(C(=O)c1ccc(C#N)cc1)C2=O`
[A] 158 to 159 °C

[Q] Dear colleague, I am looking for the recorded melting point of the following compound: `CC(C)c1cccc(C(C)C)c1N1C(=O)C(c2ccccc2)=C(c2ccccc2)C1=O`
[A] 233 to 234 °C
